Sourced from paper PMC8151276

# NanoBRET Fold Response annotations
Biological target: FSHR (Homo sapiens, UniProt P23945)
Construct: purchased Promega (in-house HiBiT-GPCR construct library, NanoBRET)
Sequence (P23945 18-695): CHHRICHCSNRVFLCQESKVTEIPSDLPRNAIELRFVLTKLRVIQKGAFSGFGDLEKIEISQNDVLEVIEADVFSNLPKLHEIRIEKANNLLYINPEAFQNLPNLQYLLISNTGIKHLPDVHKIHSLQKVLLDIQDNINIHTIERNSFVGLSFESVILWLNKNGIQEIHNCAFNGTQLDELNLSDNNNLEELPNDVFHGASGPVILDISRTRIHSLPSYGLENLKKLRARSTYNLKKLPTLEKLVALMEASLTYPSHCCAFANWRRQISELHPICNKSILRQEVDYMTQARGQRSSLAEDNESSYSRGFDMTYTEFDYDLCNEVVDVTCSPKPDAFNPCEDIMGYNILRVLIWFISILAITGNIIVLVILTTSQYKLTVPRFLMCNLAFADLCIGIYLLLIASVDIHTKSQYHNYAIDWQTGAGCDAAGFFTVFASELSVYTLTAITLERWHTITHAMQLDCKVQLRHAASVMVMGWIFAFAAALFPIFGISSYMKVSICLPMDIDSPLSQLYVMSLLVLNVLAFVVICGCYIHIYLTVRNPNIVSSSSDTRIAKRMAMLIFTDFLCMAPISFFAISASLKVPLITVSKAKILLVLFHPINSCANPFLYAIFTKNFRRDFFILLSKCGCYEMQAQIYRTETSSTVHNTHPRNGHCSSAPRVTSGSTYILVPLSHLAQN
Test: NanoBRET screen HiBiT-FSHR in HEK293
Assay type: binding
Settings: FSHR; tracer 1μM
observable: NanoBRET Fold Response

INSERT INTO assay_data (molecule, observable, obs_value) VALUES
  ('COc1ccccc1N1CCN(CCCCN2C(=O)c3ccc(CNC(=O)CCOCCOCCOCCOCCNC(=O)CCc4ccc5n4[B-](F)(F)[N+]4=C(c6ccc[nH]6)C=CC4=C5)cc3C2=O)CC1', 'NanoBRET Fold Response', 0.97),
  ('CC(C)N(CC[C@H](c1ccccc1)c1cc(CCNC(=O)c2ccc(CNC(=O)CCc3ccc4n3[B-](F)(F)[N+]3=C(c5ccc[nH]5)C=CC3=C4)cc2)ccc1O)C(C)C', 'NanoBRET Fold Response', 1.09),
  ('Cc1cc2c(s1)Nc1ccccc1N=C2N1CCN(CCCNC(=O)CCOCCOCCOCCOCCNC(=O)CCc2ccc3n2[B-](F)(F)[N+]2=C(c4ccc[nH]4)C=CC2=C3)CC1', 'NanoBRET Fold Response', 0.99),
  ('Cc1nc2n(c(=O)c1CCN1CCC(c3noc4cc(F)ccc34)CC1)CCCC2OC(=O)NCCOCCOCCOCCOCCNC(=O)CCc1ccc2n1[B-](F)(F)[N+]1=C(c3ccc[nH]3)C=CC1=C2 (centres unmarked)', 'NanoBRET Fold Response', 1.23),
  ('O=C(CCOCCOCCOCCOCCNC(=O)CCc1ccc2n1[B-](F)(F)[N+]1=C(c3ccc[nH]3)C=CC1=C2)NCCCN1CCN(C2=Nc3ccccc3Oc3ccc(Cl)cc32)CC1', 'NanoBRET Fold Response', 1.16);

----------
Target: CNR1 (Homo sapiens)
Construct: purchased Promega (in-house HiBiT-GPCR construct library, NanoBRET)
Sequence (P21554 whole entry): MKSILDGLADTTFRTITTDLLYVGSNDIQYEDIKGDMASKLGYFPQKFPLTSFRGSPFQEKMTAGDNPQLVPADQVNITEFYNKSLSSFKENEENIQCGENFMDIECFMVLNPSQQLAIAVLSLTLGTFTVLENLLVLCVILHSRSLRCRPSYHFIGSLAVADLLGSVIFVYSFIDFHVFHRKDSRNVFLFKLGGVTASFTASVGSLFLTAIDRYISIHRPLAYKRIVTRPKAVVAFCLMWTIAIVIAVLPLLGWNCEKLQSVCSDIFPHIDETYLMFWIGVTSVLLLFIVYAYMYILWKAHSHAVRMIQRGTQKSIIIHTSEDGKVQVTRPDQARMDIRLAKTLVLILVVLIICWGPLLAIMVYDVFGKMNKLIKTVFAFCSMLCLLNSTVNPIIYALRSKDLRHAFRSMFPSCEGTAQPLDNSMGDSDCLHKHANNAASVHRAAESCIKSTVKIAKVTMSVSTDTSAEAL
Test: NanoBRET screen HiBiT-CNR1 in HEK293
Type: binding
Conditions: CNR1; tracer 1μM
Protocol: Each tracer candidate was screened across the entire library of HiBiT-GPCR constructs using NanoBRET as the detection modality. As depicted in Figure 4A, the specificity of interactions was evaluated through decrease in BRET due to competitive displacement of a bound tracer by excess parental compound. Each tracer was analyzed for binding to each HiBiT-GPCR fusion in the absence and in the presence of competing parental compound. […]
Response field label takes 1 when NanoBRET Fold Response is strictly below 1 and 0 in all other cases.

INSERT INTO results (chemical_string, assigned_category) VALUES
  ('O=C(CCOCCOCCOCCOCCNC(=O)CCc1ccc2n1[B-](F)(F)[N+]1=C(c3ccc[nH]3)C=CC1=C2)NCCCN1CCN(C2=Nc3ccccc3Oc3ccc(Cl)cc32)CC1', 1),
  ('CC(C)N(CC[C@H](c1ccccc1)c1cc(CCNC(=O)c2ccc(CNC(=O)CCc3ccc4n3[B-](F)(F)[N+]3=C(c5ccc[nH]5)C=CC3=C4)cc2)ccc1O)C(C)C', 1),
  ('CC(C)N(CC[C@H](c1ccccc1)c1cc(CCNC(=O)CCOCCOCCOCCOCCNC(=O)CCc2ccc3n2[B-](F)(F)[N+]2=C(c4ccc[nH]4)C=CC2=C3)ccc1O)C(C)C', 0),
  ('Cc1cc2c(s1)Nc1ccccc1N=C2N1CCN(CCCNC(=O)CCOCCOCCOCCOCCNC(=O)CCc2ccc3n2[B-](F)(F)[N+]2=C(c4ccc[nH]4)C=CC2=C3)CC1', 0);
